The measurements presented in this section are drawn from patent US7250442B2.

pKi: −log10 of the molar value.
Readout Type: pKi

Query: Form entry - test system: glucocorticoid receptor (Homo sapiens); read-out: pKi; molecule: `COc1ccc(-c2nc(CN3C(=O)C(c4cc(C)c(O)c(C)c4)(c4cc(C)c(O)c(C)c4)c4ccccc43)no2)cc1`
Sequence (P04150 whole entry): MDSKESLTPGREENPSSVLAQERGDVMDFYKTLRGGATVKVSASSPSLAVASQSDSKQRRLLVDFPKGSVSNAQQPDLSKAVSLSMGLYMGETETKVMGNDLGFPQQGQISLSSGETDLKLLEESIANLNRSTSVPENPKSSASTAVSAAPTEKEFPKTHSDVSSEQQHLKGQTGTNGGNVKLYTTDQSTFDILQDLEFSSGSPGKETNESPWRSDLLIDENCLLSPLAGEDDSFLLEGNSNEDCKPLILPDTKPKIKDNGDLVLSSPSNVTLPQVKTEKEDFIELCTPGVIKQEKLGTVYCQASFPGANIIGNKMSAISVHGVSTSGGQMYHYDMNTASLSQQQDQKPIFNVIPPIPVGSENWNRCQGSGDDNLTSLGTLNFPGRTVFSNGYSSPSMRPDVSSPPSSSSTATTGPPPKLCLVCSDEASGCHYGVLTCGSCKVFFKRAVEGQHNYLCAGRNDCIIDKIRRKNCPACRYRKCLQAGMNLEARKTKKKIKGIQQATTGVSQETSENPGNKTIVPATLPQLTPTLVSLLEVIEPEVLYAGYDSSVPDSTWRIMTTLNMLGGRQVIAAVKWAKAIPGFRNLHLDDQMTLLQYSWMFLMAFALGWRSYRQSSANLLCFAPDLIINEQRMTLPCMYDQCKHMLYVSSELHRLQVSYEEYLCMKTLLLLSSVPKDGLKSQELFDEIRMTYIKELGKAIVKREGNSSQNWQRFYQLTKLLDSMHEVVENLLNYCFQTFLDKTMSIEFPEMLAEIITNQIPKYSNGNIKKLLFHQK
Response: ≥ 6.00

Query: I'm curious: which pKi was measured for `Cc1cc(C2(c3cc(C)c(O)c(C)c3)C(=O)N(Cc3ccc(C(C)(C)C)cc3)c3ccccc32)cc(C)c1O` tested on glucocorticoid receptor (Homo sapiens)?
Response: ≥ 6.00

Query: Entry `Cc1cc(C2(c3cc(C)c(O)c(C)c3)C(=O)N(Cc3ccc(Br)cc3)c3ccccc32)cc(C)c1O` , system glucocorticoid receptor (Homo sapiens): what pKi was measured?
Response: ≥ 6.30

Query: Item: `Cc1cc(C2(c3cc(C)c(O)c(C)c3)C(=O)N(Cc3ccc(C(F)(F)F)cc3)c3ccccc32)cc(C)c1O` Test system: glucocorticoid receptor (Homo sapiens) Read-out: pKi Value: ?
Response: ≥ 6.30
